Catalogue of Emax values
- ASSAYED_TARGET: GlunN1/GluN2A glutamate receptors (Homo sapiens (Human), UniProt Q05586+Q12879)
- Sequence (Q12879 23-1464, other chains not shown): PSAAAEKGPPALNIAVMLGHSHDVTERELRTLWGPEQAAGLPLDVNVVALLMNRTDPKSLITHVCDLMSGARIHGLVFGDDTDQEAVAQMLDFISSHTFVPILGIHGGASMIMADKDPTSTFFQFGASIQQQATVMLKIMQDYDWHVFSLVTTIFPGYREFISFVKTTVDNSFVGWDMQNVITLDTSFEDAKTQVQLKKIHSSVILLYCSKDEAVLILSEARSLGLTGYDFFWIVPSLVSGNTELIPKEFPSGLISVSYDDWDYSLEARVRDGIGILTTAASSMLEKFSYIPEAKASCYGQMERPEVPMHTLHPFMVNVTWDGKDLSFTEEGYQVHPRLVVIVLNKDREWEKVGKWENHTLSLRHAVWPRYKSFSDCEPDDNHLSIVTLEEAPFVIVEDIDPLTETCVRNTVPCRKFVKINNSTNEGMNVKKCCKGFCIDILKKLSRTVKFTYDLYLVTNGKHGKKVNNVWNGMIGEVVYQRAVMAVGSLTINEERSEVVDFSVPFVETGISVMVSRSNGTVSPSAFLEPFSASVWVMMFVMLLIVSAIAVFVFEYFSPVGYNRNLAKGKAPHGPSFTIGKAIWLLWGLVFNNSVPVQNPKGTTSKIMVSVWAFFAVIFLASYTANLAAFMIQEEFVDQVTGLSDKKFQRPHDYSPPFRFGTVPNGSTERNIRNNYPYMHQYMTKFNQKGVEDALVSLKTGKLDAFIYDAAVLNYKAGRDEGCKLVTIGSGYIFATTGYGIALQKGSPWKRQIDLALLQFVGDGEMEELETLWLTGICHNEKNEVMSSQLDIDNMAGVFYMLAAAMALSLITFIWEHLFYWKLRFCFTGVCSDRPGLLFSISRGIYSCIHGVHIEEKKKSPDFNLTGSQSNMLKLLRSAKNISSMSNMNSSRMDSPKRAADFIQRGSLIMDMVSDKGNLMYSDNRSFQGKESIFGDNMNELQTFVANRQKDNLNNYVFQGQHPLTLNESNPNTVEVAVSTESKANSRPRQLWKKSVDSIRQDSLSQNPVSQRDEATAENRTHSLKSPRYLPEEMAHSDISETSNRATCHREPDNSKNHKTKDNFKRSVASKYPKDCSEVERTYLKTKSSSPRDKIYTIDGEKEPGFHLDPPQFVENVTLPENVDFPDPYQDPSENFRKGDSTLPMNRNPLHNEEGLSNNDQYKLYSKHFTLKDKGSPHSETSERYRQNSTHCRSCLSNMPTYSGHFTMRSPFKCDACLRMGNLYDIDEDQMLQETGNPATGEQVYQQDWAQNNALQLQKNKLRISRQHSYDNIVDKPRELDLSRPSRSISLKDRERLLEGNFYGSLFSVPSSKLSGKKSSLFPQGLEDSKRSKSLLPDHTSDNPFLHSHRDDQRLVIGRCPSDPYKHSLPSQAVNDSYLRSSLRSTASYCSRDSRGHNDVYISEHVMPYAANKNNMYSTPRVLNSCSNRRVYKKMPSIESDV
- EXPERIMENT: Whole-cell patch clamp of mammalian cells (Ionworks Barracuda), positive allosteric modulation, GluN1/GluN2A
- Format: cell-based
- CONDITION_SET: HEK293 cells; % potentiation of current elicited with EC20 L-glutamate and 30 μM glycine; read-out: Avg Emax 2A (%)
Lab book: enter the figure in %, no units written.

Reference set, count: 3
C[C@H](CC[C@@H](O)C1CCC1)[C@H]1CC[C@H]2[C@@H]3CC[C@H]4C[C@](O)(C(F)(F)F)CC[C@]4(C)[C@H]3CC[C@]12C [7−B] : 356
CC[C@]1(O)CC[C@@]2(C)[C@@H](CC[C@@H]3[C@@H]2CC[C@]2(C)[C@@H]([C@H](C)CC[C@H](O)c4ccccc4)CC[C@@H]32)C1 [Compound 6572] : 129
C[C@H](CCC(O)C1CCC1)[C@H]1CC[C@H]2[C@@H]3CC[C@H]4C[C@](O)(C(F)(F)F)CC[C@]4(C)[C@H]3CC[C@]12C (some centres unmarked) [Compound 7] : 516

q: For CC[C@]1(O)CC[C@@]2(C)[C@@H](CC[C@@H]3[C@@H]2CC[C@]2(C)[C@@H]([C@H](C)CC[C@@H](O)c4cccnc4)CC[C@@H]32)C1 [Compound 6755] , what is its reported Emax?
a: 22.8

q: Sample C[C@H](CCC1(O)CCC2(CC1)COC2)[C@H]1CC[C@H]2[C@@H]3CC[C@H]4C[C@](O)(C(F)(F)F)CC[C@]4(C)[C@H]3CC[C@]12C [Compound 5009] — what was its Emax?
a: 27.5

q: Find the recorded Emax belonging to CC[C@]1(O)CC[C@@]2(C)[C@@H](CC[C@@H]3[C@@H]2CC[C@]2(C)[C@@H]([C@H](C)CC[C@H](O)c4ccccn4)CC[C@@H]32)C1 [Compound 7032] and report it.
a: 28.3

q: Fill in the blank: the reported Emax of CC[C@H]1CC[C@@](O)(CC[C@@H](C)[C@H]2CC[C@H]3[C@@H]4CC[C@H]5C[C@](O)(C(F)(F)F)CC[C@]5(C)[C@H]4CC[C@]23C)CC1 [Compound 4475] is ____.
a: 364

q: Which Emax is reported for this compound? C[C@H](CCCC(C)(C)O)[C@H]1CC[C@H]2[C@@H]3CC[C@H]4C[C@](O)(C(F)(F)F)CC[C@]4(C)[C@H]3CC[C@]12C [Compound 5116]
a: 185

---

- ASSAYED_TARGET: GlunN1/GluN2A glutamate receptors (Homo sapiens (Human), UniProt Q05586+Q12879)
- EXPERIMENT: Whole-cell patch clamp of mammalian cells (Ionworks Barracuda), positive allosteric modulation, GluN1/GluN2A
- Format: cell-based
MEASURED_PROPERTY: EC50 (nM)
Note: unit nM is implicit; provide only the numeric part.

Example entries begin here.
CC[C@]1(O)CC[C@@]2(C)[C@@H](CC[C@@H]3[C@@H]2CC[C@]2(C)[C@@H]([C@H](C)CC[C@@H](O)c4ccccc4)CC[C@@H]32)C1 [Compound 6571] : 190
CC[C@]1(O)CC[C@H]2C(=CC[C@@H]3[C@@H]2CC[C@]2(C)[C@@H]([C@H](C)CC[C@]4(O)CCOC4)CC[C@@H]32)C1 [Compound 8603] : 135

Next up:
q: What value of measured EC50 is listed for CC[C@]1(O)CC[C@@]2(C)[C@@H](CC[C@@H]3[C@@H]2CC[C@]2(C)[C@@H]([C@H](C)CC[C@H](O)c4ccccc4)CC[C@@H]32)C1 [Compound 6572] ?
a: 378

---

- ASSAYED_TARGET: GluN2B glutamate receptors (Homo sapiens (Human), UniProt Q05586+Q13224)
- Sequence (Q13224 27-1484, other chains not shown): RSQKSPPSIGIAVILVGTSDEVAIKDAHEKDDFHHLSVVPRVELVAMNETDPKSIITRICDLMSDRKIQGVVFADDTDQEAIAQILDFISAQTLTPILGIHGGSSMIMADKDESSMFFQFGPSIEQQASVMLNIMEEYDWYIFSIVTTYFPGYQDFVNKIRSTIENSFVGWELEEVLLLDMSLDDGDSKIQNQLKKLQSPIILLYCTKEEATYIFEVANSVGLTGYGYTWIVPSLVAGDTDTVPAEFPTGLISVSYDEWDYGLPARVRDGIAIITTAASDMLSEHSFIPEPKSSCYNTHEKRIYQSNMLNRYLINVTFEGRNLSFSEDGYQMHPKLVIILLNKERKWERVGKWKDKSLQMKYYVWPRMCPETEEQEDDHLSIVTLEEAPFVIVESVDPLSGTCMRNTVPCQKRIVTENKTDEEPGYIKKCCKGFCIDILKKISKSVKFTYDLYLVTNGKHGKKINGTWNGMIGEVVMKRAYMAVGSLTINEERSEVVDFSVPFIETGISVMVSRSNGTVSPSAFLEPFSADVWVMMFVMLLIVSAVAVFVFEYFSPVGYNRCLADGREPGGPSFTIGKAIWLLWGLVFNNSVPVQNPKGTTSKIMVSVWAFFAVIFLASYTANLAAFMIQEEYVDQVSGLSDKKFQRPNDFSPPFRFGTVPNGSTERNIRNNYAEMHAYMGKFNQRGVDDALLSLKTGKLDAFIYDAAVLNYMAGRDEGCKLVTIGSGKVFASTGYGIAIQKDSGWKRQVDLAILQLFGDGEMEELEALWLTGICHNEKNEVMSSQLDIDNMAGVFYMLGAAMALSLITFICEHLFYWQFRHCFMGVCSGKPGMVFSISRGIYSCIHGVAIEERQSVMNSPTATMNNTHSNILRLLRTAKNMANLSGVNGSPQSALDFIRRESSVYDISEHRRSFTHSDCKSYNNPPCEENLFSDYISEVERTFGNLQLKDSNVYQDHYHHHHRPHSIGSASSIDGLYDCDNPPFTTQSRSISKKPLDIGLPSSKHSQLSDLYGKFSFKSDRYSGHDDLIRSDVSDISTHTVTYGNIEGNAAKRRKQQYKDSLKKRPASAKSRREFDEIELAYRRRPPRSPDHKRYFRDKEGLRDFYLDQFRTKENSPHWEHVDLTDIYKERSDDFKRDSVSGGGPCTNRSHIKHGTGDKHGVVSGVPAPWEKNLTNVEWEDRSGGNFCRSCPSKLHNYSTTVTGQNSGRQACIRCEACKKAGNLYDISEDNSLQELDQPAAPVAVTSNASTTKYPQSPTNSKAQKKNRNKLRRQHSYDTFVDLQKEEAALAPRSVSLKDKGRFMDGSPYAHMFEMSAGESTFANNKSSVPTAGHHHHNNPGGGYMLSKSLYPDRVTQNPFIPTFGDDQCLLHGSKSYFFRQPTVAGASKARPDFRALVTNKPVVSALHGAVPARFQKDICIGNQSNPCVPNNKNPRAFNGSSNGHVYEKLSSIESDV
- EXPERIMENT: Whole-cell patch clamp of mammalian cells (Ionworks Barracuda), positive allosteric modulation, GluN2B
- Assay type: cell-based
- CONDITION_SET: % potentiation of current elicited with EC20 L-glutamate and 30 μM glycine; read-out: Avg Emax 2B (%)
So basically: Emax at 200% or higher? That is yes (1). Lower than 200%? That is no (0).

CC(C)C(O)CC[C@@H](C)[C@H]1CC[C@H]2[C@@H]3CC[C@H]4C[C@](O)(C(F)(F)F)CC[C@]4(C)[C@H]3CC[C@]12C (stereo partly shown) [Compound 2] : yes (1)

q: Form field: Emax at least 200%? Entry: CC[C@]1(O)CC[C@H]2[C@@H](CC[C@@H]3[C@@H]2CC[C@]2(C)[C@@H]([C@H](C)CCCC(C)(C)O)CC[C@@H]32)C1 [Compound 9670]
a: yes (1)

q: Please check the record CC[C@]1(O)CC[C@@]2(C)C(=CC[C@H]3[C@@H]4CC[C@H]([C@H](C)CC[C@@H](O)c5ccccc5)[C@@]4(C)CC[C@@H]32)C1 [Compound 861] and state if its Emax is at or above 200%.
a: yes (1)

---

Listing: pEC50 of selected compounds
- ASSAYED_TARGET: GluN2B glutamate receptors (Homo sapiens (Human), UniProt Q05586+Q13224)
- EXPERIMENT: Whole-cell patch clamp of mammalian cells (Ionworks Barracuda), positive allosteric modulation, GluN2B
- Assay type: cell-based
pEC50 is a log-scale quantity: -log10 of the concentration expressed in molar.

Take a look at these entries with their results.
C[C@H](CC[C@H](O)C1CCOCC1)[C@H]1CC[C@H]2[C@@H]3CC[C@H]4C[C@](O)(C(F)(F)F)CC[C@]4(C)[C@H]3CC[C@]12C : 6.73
C[C@H](CC[C@](C)(O)C(F)(F)F)[C@H]1CC[C@H]2[C@@H]3CC[C@H]4C[C@](O)(C(F)(F)F)CC[C@]4(C)[C@H]3CC[C@]12C : 6.67

q: # lookup: pEC50 of "CC[C@H](O)CC[C@@H](C)[C@H]1CC[C@H]2[C@@H]3CC[C@H]4C[C@](O)(CC)CC[C@@H]4[C@H]3CC[C@]12C"
a: 6.79

---

We begin with a simple list: items and their reported Emax.
- ASSAYED_TARGET: GluN2B glutamate receptors (Homo sapiens (Human), UniProt Q05586+Q13224)
- EXPERIMENT: Whole-cell patch clamp of mammalian cells (Ionworks Barracuda), positive allosteric modulation, GluN2B
- Assay type: cell-based
- CONDITION_SET: % potentiation of current elicited with EC20 L-glutamate and 30 μM glycine; read-out: Avg Emax 2B (%)

Recorded Emax, per entry:
COC[C@H]1CC[C@@](O)(CC[C@@H](C)[C@H]2CC[C@H]3[C@@H]4CC[C@H]5C[C@](O)(C(F)(F)F)CC[C@]5(C)[C@H]4CC[C@]23C)CC1 : 122%
CC[C@]1(O)CC[C@@]2(C)C(=CC[C@H]3[C@@H]4CC[C@H]([C@H](C)CC[C@@H](O)c5ccc(C#N)cc5)[C@@]4(C)CC[C@@H]32)C1 (single isomer, unassigned) : 123%

The record that follows has no Emax shown yet.
q: Return Emax measured with GluN2B glutamate receptors (Homo sapiens (Human), UniProt Q05586+Q13224) given this compound: "CC[C@@H](O)CC[C@@H](C)[C@H]1CC[C@H]2[C@@H]3CC=C4C[C@](O)(CC)CC[C@@H]4[C@H]3CC[C@]12C"
a: 363%

---

- ASSAYED_TARGET: GlunN1/GluN2A glutamate receptors (Homo sapiens (Human), UniProt Q05586+Q12879)
- EXPERIMENT: Whole-cell patch clamp of mammalian cells (Ionworks Barracuda), positive allosteric modulation, GluN1/GluN2A
- Type: cell-based
Binary call on EC50 with cut-off 500 nM: strictly below means true, and equality or higher means false.

Take a look at these entries with their results.
CC(C)[C@H]1CC[C@@](O)(CC[C@@H](C)[C@H]2CC[C@H]3[C@@H]4CC[C@H]5C[C@](O)(C(F)(F)F)CC[C@]5(C)[C@H]4CC[C@]23C)CC1 [Compound 4258] : false
CC[C@]1(O)CC[C@@]2(C)C(=CC[C@H]3[C@@H]4CC[C@H]([C@H](C)CC[C@H](O)c5ccccc5F)[C@@]4(C)CC[C@@H]32)C1 (single isomer, unassigned) [Compound 7281] : true
CCC(O)CC[C@@H](C)[C@H]1CC[C@H]2[C@@H]3CC=C4C[C@](O)(CC)CC[C@@H]4[C@H]3CC[C@]12C (some centres unmarked) [Compound 8564] : true

q: Quick check: EC50 of CC[C@H](O)CC[C@@H](C)[C@H]1CC[C@H]2[C@@H]3CC[C@H]4C[C@](O)(CC)CC[C@@H]4[C@H]3CC[C@]12C [Compound 8809] under 500 nM?
a: false

q: Determine if CC[C@]1(O)CC[C@@]2(C)C(=CC[C@H]3[C@@H]4CC[C@H]([C@H](C)CCC(O)c5ccccc5)[C@@]4(C)CC[C@@H]32)C1 (some centres unmarked) [Compound 761] shows EC50 strictly lower than 500 nM.
a: true
